Origin of the recorded values: the Immune Epitope Database (IEDB)

target: HLA-A*02:19; experiment: IEDB peptide-MHC binding, purified MHC/direct/fluorescence; filed as Kd, often an IC50 or EC50 that approximates it; bounds were set here for any values at or beyond the usual limits of such assays; conditions: source organism: Rickettsia prowazekii
measurement label: Kd

>>> result("FGSGWTWVV")
"≤ 1 nM"

====

target: HLA-A*02:19; assay: IEDB peptide-MHC binding, purified MHC/direct/fluorescence; filed as Kd, often an IC50 or EC50 that approximates it; bounds were set here for any values at or beyond the usual limits of such assays; conditions: source organism: Reston ebolavirus
measurement label: Kd

>>> result("ITDEINQIK")
"≥ 20 µM"
